Attribute: TGI
# System: A498 renal
# ASSAY EXPLANATION: NCI tumour cell line growth inhibition, 48 h
RECORDED ENDPOINT: TGI

CC(=O)OC1OC2C(NC(=O)OC(C)(C)C)C1CC2(OCc1ccccc1)OCc1ccccc1 (centres undefined); > 82.9 µM
CC1=CCC[C@@](C)(O)[C@@H]2C[C@H]3C(CSc4ccccc4)C(=O)O[C@H]3[C@@H](O2)[C@H](C)CCC1 (some centres undefined); 45 µM
C[C@H]1CCC/C=C/[C@@H]2C[C@H](O)C[C@H]2[C@H](O)[C@@H](S(=O)CCN)CC(=O)O1 (some centres undefined); 0.126 µM
NC12CC3CC(C1)CC(Cl)(C3)C2; > 100 µM
CC(C)CNc1nc(N)[nH]c(=O)c1NC=O; > 100 µM
O=C1C=CN(C2OC(CO)C(O)C2O)C(=O)C1 (centres undefined); > 2500 µM
C=C1C(=O)O[C@H]2[C@H]1[C@H](OC(=O)/C(C)=C\C)C[C@]1(CO1)[C@@H]1[C@H](OC(C)=O)C=C(C)[C@]21O; > 100 µM
COc1cc2nc(-c3ccc(-n4cncc4-c4ccc(N)cc4)cc3)sc2c(OC)c1OC; > 100 µM
Cc1[nH]n(-c2nc3c(c(=O)[nH]2)CCC3)c(=O)c1CCO; > 100 µM

Sourced from PubChem BioAssay (NCI)
